Assay: Single oral dose PK
Type: in vivo
Conditions: Bama, minipig, plasma; single PO 0.3 g/kg, female

- TEST_SMILES: "OC[C@@H](O)[C@@H](O)[C@@H](O)CO"
  AUC(0-inf) [µg·h/mL]: 245

---

Assay: Single intravenous dose PK
Type: in vivo, Bama minipig
Settings: both sexes, Bama, plasma, iv; minipig, range; read-out: T1/2 following the IV dose

- COMPOUND: "OC[C@@H](O)[C@@H](O)[C@@H](O)CO [ribitol, (2R,3s,4S)-Pentane-1,2,3,4,5-pentol]"
  half-life: "31.1 to 59.6 min"

---

Experiment: 7-day repeat-dose oral toxicokinetics
Format: in vivo, CD-1 mouse
Settings: female, CD-1, mouse, plasma, po, 1 g/kg, 1.0 g/kg/dose BID, Day 7, F
REPORTED_ENDPOINT: Cmax (µg/mL)

- TEST_SMILES: "OC[C@@H](O)[C@@H](O)[C@@H](O)CO"
  MEASURED: 210
